Entry source: patent US12084430B2

Catalogue of IC50 readings, one per entry.
# experimental.target: catalytic domain (JH1, amino acids 826-1132) of human JAK2 (Homo sapiens, UniProt O60674)
# Construct: catalytic domain (JH1, amino acids 826-1132) of human JAK2; FLAG (N); biotin (biotinylated); purchased Carna Biosciences 08-445-20N; host or cells: baculovirus expression system
# Sequence (O60674 826-1132): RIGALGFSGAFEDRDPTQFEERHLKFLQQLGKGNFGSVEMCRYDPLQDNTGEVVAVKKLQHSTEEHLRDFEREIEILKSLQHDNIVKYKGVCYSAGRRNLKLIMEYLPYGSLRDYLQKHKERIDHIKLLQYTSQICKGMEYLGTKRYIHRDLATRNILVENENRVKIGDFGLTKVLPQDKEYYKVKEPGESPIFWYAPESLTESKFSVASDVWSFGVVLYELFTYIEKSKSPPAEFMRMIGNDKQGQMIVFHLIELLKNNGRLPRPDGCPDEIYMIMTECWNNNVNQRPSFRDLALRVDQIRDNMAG
# run.description: JAK2 LanthaScreen JH1 binding assay
# condition: Table C; read-out: JH1 Bind IC50

Which measured IC50 value corresponds to [2H]C([2H])([2H])Oc1ccc(-c2c(-c3cn(C([2H])([2H])[2H])nc3F)[nH]c3ncc4c(c23)n([C@@H]2CC[C@@H](NC(=O)OC)C2)c(=O)n4C([2H])([2H])[2H])cc1 ?
> 1000 nM

Moving on to [2H]C([2H])([2H])n1c(=O)n([C@@H]2CC[C@@H](NC(=O)OC)C2)c2c3c(-c4ccc5c(c4)COC5(C)C)c(-c4cn(CC(F)F)nc4F)[nH]c3ncc21
> 1000 nM

New cases:
Which IC50 value belongs to [2H]C([2H])([2H])n1cc(-c2[nH]c3ncc4c(c3c2-c2ccc3c(cnn3C(C)C)c2)n([C@@H]2CC[C@@H](NC(=O)OC)C2)c(=O)n4C)c(F)n1 ?
> 1000 nM

---

Quick reference: IC50 of the listed items.
# System: pSTAT5 signaling in SET-2 cells in whole blood
# run.description: pSTAT5 SET-2 whole blood MSD assay
# Type: cell-based
# condition: Homo sapiens, pSTAT5, 2 hour, read-out: SET2 WB IC50

Form field: reported IC50 of COC(=O)N[C@@H]1CC[C@@H](n2c(=O)n(C)c3cnc4[nH]c(-c5cn(C)nc5OC)c(-c5ccc(F)cc5)c4c32)C1 [Example 1]
2500 to 5000 nM

Now consider COC(=O)N[C@@H]1CC[C@@H](n2c(=O)n(C)c3cnc4[nH]c(-c5cn(C)nc5OC)c(-c5cccc(F)c5)c4c32)C1 [Example 3] and answer again.
5000 to 7500 nM

Moving on to the next compound: [2H]C([2H])([2H])n1cc(-c2[nH]c3ncc4c(c3c2-c2ccc(C(C)(C)O)cc2)n([C@@H]2CC[C@@H](NC(=O)OC)C2)c(=O)n4C([2H])([2H])[2H])c(F)n1 [Example 10]
≤ 2500 nM

Queued: [2H]C([2H])([2H])Oc1ccc(-c2c(-c3cn(C([2H])([2H])[2H])nc3F)[nH]c3ncc4c(c23)n([C@@H]2CC[C@@H](NC(=O)OC)C2)c(=O)n4C([2H])([2H])[2H])cc1 [Example 9]
2500 to 5000 nM

Next: [2H]C([2H])([2H])n1ncc2cc(-c3c(-c4cn(C)nc4OC)[nH]c4ncc5c(c34)n([C@@H]3CC[C@@H](NC(=O)OC)C3)c(=O)n5C)ccc21 [Example 5]
≤ 2500 nM

---
Item [2H]C([2H])([2H])n1cc(-c2[nH]c3ncc4c(c3c2-c2ccc3c(cnn3C(C)C)c2)n([C@@H]2CC[C@@H](NC(=O)OC)C2)c(=O)n4C([2H])([2H])[2H])c(F)n1 [Example 13] has what recorded IC50?
≤ 2500 nM

Lookup [2H]C([2H])([2H])n1c(=O)n([C@@H]2CC[C@@H](NC(=O)OC)C2)c2c3c(-c4ccc5c(c4)COC5(C)C)c(-c4cn(CC)nc4F)[nH]c3ncc21 [Example 20]
≤ 2500 nM

Also, [2H]C([2H])([2H])n1ncc2cc(-c3c(-c4cn(C)nc4OC)[nH]c4ncc5c(c34)n(C3CCOCC3)c(=O)n5C)ccc21 [B, reference compound] please.
> 7500 nM

Continue with [2H]C([2H])([2H])n1ncc2cc(-c3c(-c4cn(C([2H])(C([2H])([2H])[2H])C([2H])([2H])[2H])nc4F)[nH]c4ncc5c(c34)n([C@@H]3CC[C@@H](NC(=O)OC)C3)c(=O)n5C([2H])([2H])[2H])ccc21 [Example 21]
≤ 2500 nM

And then [2H]C([2H])([2H])n1c(=O)n([C@@H]2CC[C@@H](NC(=O)OC)C2)c2c3c(-c4ccc5c(c4)COC5(C)C)c(-c4cn(CC(F)F)nc4F)[nH]c3ncc21 [Example 12] , what is it?
≤ 2500 nM

---

# run.description: In vivo pharmacokinetics, rat
# Parameters: species or system Sprague Dawley rats
# condition: male, Sprague Dawley, plasma, oral 3.0 mg/kg
# Description: Example H. In Vivo Pharmacokinetics Test compounds were administered to male Sprague Dawley rats or male and female Cynomolgus monkeys intravenously or via oral gavage. […] The plasma concentrations of test compounds were determined by LC-MS/MS methods. The measured plasma concentrations were used to calculate PK parameters by standard noncompartmental methods using Phoenix® WinNonlin software program (version 8.0, Pharsight Corporation) or similar software. […]
test.readout: AUC

Examples with their reported AUC follow.
Reported AUC, molecule [2H]C([2H])([2H])n1cc(-c2[nH]c3ncc4c(c3c2-c2ccc3c(cnn3CC(F)F)c2)n([C@@H]2CC[C@@H](NC(=O)OC)C2)c(=O)n4C([2H])([2H])[2H])c(F)n1 : ____
0.5 to 1.5 µM·h

Quick one: [2H]C([2H])([2H])n1cc(-c2[nH]c3ncc4c(c3c2-c2ccc(F)cc2)n([C@@H]2CC[C@@H](NC(=O)OC)C2)c(=O)n4C([2H])([2H])[2H])c(F)n1
> 1.5 µM·h

What do you get for COC(=O)N[C@@H]1CC[C@@H](n2c(=O)n(C)c3cnc4[nH]c(-c5cn(C)nc5OC)c(-c5ccccc5)c4c32)C1 ?
> 1.5 µM·h

// same read-out, input: COC(=O)N[C@@H]1CC[C@@H](n2c(=O)n(C)c3cnc4[nH]c(-c5cn(C)nc5OC)c(-c5cccc(F)c5)c4c32)C1
> 1.5 µM·h

# iterate: [2H]C([2H])([2H])n1cc(-c2[nH]c3ncc4c(c3c2-c2ccc3c(c2)COC3(C)C)n([C@@H]2CC[C@@H](NC(=O)OC)C2)c(=O)n4C([2H])([2H])[2H])c(F)n1
> 1.5 µM·h

Repeat with [2H]C([2H])([2H])n1cc(-c2[nH]c3ncc4c(c3c2-c2ccc3c(cnn3C(C)C)c2)n([C@@H]2CC[C@@H](NC(=O)OC)C2)c(=O)n4C([2H])([2H])[2H])c(F)n1
0.5 to 1.5 µM·h

Another molecule: [2H]C([2H])([2H])n1cc(-c2[nH]c3ncc4c(c3c2-c2ccc(C(C)(C)O)cc2)n([C@@H]2CC[C@@H](NC(=O)OC)C2)c(=O)n4C([2H])([2H])[2H])c(F)n1
> 1.5 µM·h

Queued: [2H]C([2H])([2H])Oc1ccc(-c2c(-c3cn(C([2H])([2H])[2H])nc3F)[nH]c3ncc4c(c23)n([C@@H]2CC[C@@H](NC(=O)OC)C2)c(=O)n4C([2H])([2H])[2H])cc1
> 1.5 µM·h

How about this molecule: COC(=O)N[C@@H]1CC[C@@H](n2c(=O)n(C)c3cnc4[nH]c(-c5cn(C)nc5OC)c(-c5ccc(F)cc5)c4c32)C1
> 1.5 µM·h

Note, next up: [2H]C([2H])([2H])n1ncc2cc(-c3c(-c4cn(C)nc4OC)[nH]c4ncc5c(c34)n([C@@H]3CC[C@@H](NC(=O)OC)C3)c(=O)n5C)ccc21
0.5 to 1.5 µM·h

---
Need AUC of [2H]C([2H])([2H])n1cc(-c2[nH]c3ncc4c(c3c2-c2ccc3c(cnn3C([2H])([2H])[2H])c2)n([C@@H]2CC[C@@H](NC(=O)OC)C2)c(=O)n4C([2H])([2H])[2H])c(F)n1 , thanks.
0.5 to 1.5 µM·h

Try this molecule next: [2H]C([2H])([2H])n1ncc2cc(-c3c(-c4cn(C([2H])([2H])C([2H])([2H])[2H])nc4F)[nH]c4ncc5c(c34)n([C@@H]3CC[C@@H](NC(=O)OC)C3)c(=O)n5C([2H])([2H])[2H])ccc21
0.5 to 1.5 µM·h

Repeat with COC(=O)N[C@@H]1CC[C@@H](n2c(=O)n(C)c3cnc4[nH]c(-c5cn(C)nc5OC)c(-c5ccc(OC)c(F)c5)c4c32)C1
> 1.5 µM·h

---

# Tested on: pSTAT5 signaling in SET-2 cells in whole blood
# run.description: pSTAT5 SET-2 whole blood MSD assay
# Assay type: cell-based
# condition: Homo sapiens, pSTAT5, 2 hour, read-out: SET2 WB IC50
test.readout: IC50

Look up IC50: [2H]C([2H])([2H])n1cc(-c2[nH]c3ncc4c(c3c2-c2ccc3c(cnn3CC(F)F)c2)n([C@@H]2CC[C@@H](NC(=O)OC)C2)c(=O)n4C([2H])([2H])[2H])c(F)n1 [Example 14]
≤ 2500 nM

Also [2H]C([2H])([2H])n1cc(-c2[nH]c3ncc4c(c3c2-c2ccc(F)cc2)n([C@@H]2CC[C@@H](NC(=O)OC)C2)c(=O)n4C([2H])([2H])[2H])c(F)n1 [Example 7] ?
2500 to 5000 nM

Let's switch to this compound now.
// lookup IC50 for COC(=O)N[C@@H]1CC[C@@H](n2c(=O)n(C)c3cnc4[nH]c(-c5cn(C)nc5OC)c(-c5ccc(OC)c(F)c5)c4c32)C1 [Example 4]
≤ 2500 nM
